Entry source: the DeepSol protein solubility set

assay: soluble on expression in E. coli; label from the status in PepcDB or PDB records
OUTCOME MEASURE: soluble on expression in E. coli

| SEQUENCE RECORD | VAL |
| --- | --- |
| MGSDKIHHHHHHLAARNFPPVLPFSPRKIAVLHAKAVGDFIVILPALDAIKRTYPEAELILLAKPWVKEFFSGRPSPVDRVLSLPPLAGVNDPVESKGRVPSTGSGVYPVEVELFCQAMQGEKLDVVIHMQGDGKSVNPFINKFAARVTAGMCNPPAESLDRSIPYVHYQSEVLRNLEVASLIGARTTSTGFEPRIEVTESDEQETESVRQTIKGKPYVVIHPGADDIRRVWPAVRFAEAADCLLEKGYAVVVTGTPKEEERVATVIRAMSRPAIPCTRLGLCGLAALLQHSALVISNDTGPLHLARAVGARTVGIYWAPNILNWGPLSRDRHRLAIGWQLECPQCGIRPVSPWPFQPQTSDCSHPYSFVESVPVAEVLALATELLGLTTEH | not soluble |
| MGHHHHHHSHVLLNEILEQVKDRTCLRALEKIKIQLEKGNKEFGDQAEAAQDATLTTTTFQNEDEKNKEVYMTPLRGVKATQASKSTQLKTNRGQRKVTVSARTNRRCQTAEADSESDHEVPEPESEMKMRLPRRAKTAALEKSKLNLAQFLNEDLS | not soluble |
